measured-attribute: melting point

Completed entries (count: 3):
O=C1NC[C@@H](c2cccc(C(F)(F)F)c2)[C@@H]1c1cn2c3c(cccc13)CCC2 (racemic) [Example 5] = 82 to 85 °C
O=C1NC[C@@H](c2c[nH]c3ccccc23)[C@@H]1c1cn2c3c(cccc13)CCC2 (racemic) [Example 4] = 241 to 243 °C
CC(C)(C)CC(=O)N1C[C@@H](c2c[nH]c3ccccc23)[C@H](c2cn3c4c(cccc24)CCC3)C1 [Example 12] = 202 to 204 °C

[in] Report melting point for O=S(=O)(c1ccccc1)N1C[C@@H](c2c[nH]c3ccccc23)[C@H](c2cn3c4c(cccc24)CCC3)C1 [Example 9] please.
[out] 115 to 125 °C

====

biological target: Recombinant unphosphorylated c-Met comprising residues 1038-1346 (Homo sapiens, UniProt P08581); construct: The DNA fragment encoding the kinase domain (1038-1346) was inserted into Novagen vector pet28a; His6 (N); experiment: c-Met 33P assay; settings: 15 minutes preincubation, 100 μM ATP, IGF-1Rtide substrate, read-out: c-Met, p33 assay
Sequence (P08581 1038-1346): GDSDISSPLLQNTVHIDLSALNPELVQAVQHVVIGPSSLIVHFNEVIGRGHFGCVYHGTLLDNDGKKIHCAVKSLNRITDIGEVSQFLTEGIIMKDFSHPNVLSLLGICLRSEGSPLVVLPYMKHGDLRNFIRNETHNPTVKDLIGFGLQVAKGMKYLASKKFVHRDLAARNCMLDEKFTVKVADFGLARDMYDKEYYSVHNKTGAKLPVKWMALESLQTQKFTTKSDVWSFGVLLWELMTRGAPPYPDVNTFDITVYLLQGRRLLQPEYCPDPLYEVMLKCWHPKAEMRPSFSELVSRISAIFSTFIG
pIC50: −log10 of the molar value.
measured-attribute: pIC50

Completed entries (count: 3):
CCNC(=O)N1C[C@@H](c2c[nH]c3ccccc23)[C@H](c2cn3c4c(cccc24)CCC3)C1 = ≤ 5.00
c1ccc2c([C@@H]3CNC[C@H]3c3cn4c5c(cccc35)CCC4)c[nH]c2c1 = ≤ 5.00
O=C1NC[C@@H](c2c[nH]c3ccccc23)[C@@H]1c1cn2c3c(cccc13)CCC2 (racemic) = 5.00 to 6.00

[in] Report pIC50 for CC(C)(C)CC(=O)N1C[C@@H](c2c[nH]c3ccccc23)[C@H](c2cn3c4c(cccc24)CCC3)C1 please.
[out] ≤ 5.00

====

# melting point annotations

[in] Report melting point for COc1cccc([C@@H]2CNC(=O)[C@H]2c2cn3c4c(cccc24)CCC3)c1 (racemic) please.
[out] 191 to 194 °C

====

Where a name gives a salt, the structure may show the parent alone.
measured-attribute: melting point

c1ccc2c([C@@H]3CNC[C@H]3c3cn4c5c(cccc35)CCC4)c[nH]c2c1 (as salt: HCl) [Example 7] = 239 to 240 °C
O=C(C1CCC1)N1C[C@@H](c2c[nH]c3ccccc23)[C@H](c2cn3c4c(cccc24)CCC3)C1 [Example 11] = 253 to 255 °C
O=C1NCC(c2cn3c4c(cccc24)CCC3)C1c1c[nH]c2ccccc12 (mixture of isomers) [Example 1] = 260 to 262 °C
CCNC(=O)N1C[C@@H](c2c[nH]c3ccccc23)[C@H](c2cn3c4c(cccc24)CCC3)C1 [Example 8] = 278 to 279 °C

Now take the following compound into account.
[in] Report melting point for CC(C)S(=O)(=O)N1C[C@@H](c2c[nH]c3ccccc23)[C@H](c2cn3c4c(cccc24)CCC3)C1 [Example 10] please.
[out] 100 to 115 °C

// provenance: patent US8304425B2
